System: IFNγ-induced NO production in RAW 264.7 cells
method description: Nitric Oxide Suppression Assay (IFNγ-induced NO, Griess nitrite readout)
Format: cell-based, mouse
settings: Mus musculus, RAW264.7, Table 3; ursolic acid derivatives; read-out: Avg NO IC50 (nM) (Mean ± SD)
Consider the following compounds and their measured IC50 readings.

{"columns": ["entry smiles", "IC50 (nM)"],
 "data": [
  ["Cc1nnc([C@]23CC[C@@H](C)[C@H](C)[C@H]2[C@H]2C(=O)C=C4[C@@]5(C)C=C(C#N)C(=O)C(C)(C)[C@@H]5CC[C@@]4(C)[C@]2(C)CC3)o1", 16.9],
  ["C[C@@H]1[C@H]2[C@H]3C(=O)C=C4[C@@]5(C)C=C(C#N)C(=O)C(C)(C)[C@@H]5CC[C@@]4(C)[C@]3(C)CC[C@@]2(Cn2cncn2)CC[C@H]1C", 8.19],
  ["C[C@@H]1[C@H]2[C@H]3C(=O)C=C4[C@@]5(C)C=C(C#N)C(=O)C(C)(C)[C@@H]5CC[C@@]4(C)[C@]3(C)CC[C@@]2(CN)CC[C@H]1C", 26],
  ["CNC(=O)N(C)C[C@]12CC[C@@H](C)[C@H](C)[C@H]1[C@H]1C(=O)C=C3[C@@]4(C)C=C(C#N)C(=O)C(C)(C)[C@@H]4CC[C@@]3(C)[C@]1(C)CC2", 5.08],
  ["C[C@@H]1[C@H]2[C@H]3C(=O)C=C4[C@@]5(C)C=C(C#N)C(=O)C(C)(C)[C@@H]5CC[C@@]4(C)[C@]3(C)CC[C@@]2(N2CCOC2=O)CC[C@H]1C", 16]
]}

----------
Tested on: Nrf2 / ARE-dependent luciferase in AREc32 reporter cell line
method description: AREc32 luciferase reporter activation (Nrf2 induction)
Assay type: cell-based, human
settings: Table 2; ratio to RTA402
Consider the following compounds and their measured Relative Avg AREc32 EC2X Relative to RTA402 (fold) readings.
measurement type: Relative Avg AREc32 EC2X Relative to RTA402 (fold)

{"columns": ["compound", "value"],
 "data": [
  ["CC(=O)N(C)C[C@]12CC[C@@H](C)[C@H](C)[C@H]1[C@H]1C(=O)C=C3[C@@]4(C)C=C(C#N)C(=O)C(C)(C)[C@@H]4CC[C@@]3(C)[C@]1(C)CC2 [Compound T35]", "0.442 ± 0.136 fold"],
  ["CCNC(=O)CC[C@]12CC[C@@H](C)[C@H](C)[C@H]1[C@H]1C(=O)C=C3[C@@]4(C)C=C(C#N)C(=O)C(C)(C)[C@@H]4CC[C@@]3(C)[C@]1(C)CC2 [Compound T79]", "0.361 ± 0.028 fold"],
  ["C[C@@H]1[C@H]2[C@H]3C(=O)C=C4[C@@]5(C)C=C(C#N)C(=O)C(C)(C)[C@@H]5CC[C@@]4(C)[C@]3(C)CC[C@@]2(NC(=O)C(C)(F)F)CC[C@H]1C [Compound T17]", "1.92 ± 0.74 fold"],
  ["Cc1cn(C[C@]23CC[C@@H](C)[C@H](C)[C@H]2[C@H]2C(=O)C=C4[C@@]5(C)C=C(C#N)C(=O)C(C)(C)[C@@H]5CC[C@@]4(C)[C@]2(C)CC3)nn1 [Compound T49]", "0.643 ± 0.116 fold"],
  ["[2H]C([2H])([2H])C(=O)NC[C@]12CC[C@@H](C)[C@H](C)[C@H]1[C@H]1C(=O)C=C3[C@@]4(C)C=C(C#N)C(=O)C(C)(C)[C@@H]4CC[C@@]3(C)[C@]1(C)CC2 [Compound T24]", "0.126 ± 0.026 fold"]
]}
